I'd appreciate it if you could supply IC50 values for the items below.
test system: MIA PaCa-2; test: In vitro inhibitory effect on growth of human MIAPaCa-2 tumor cell line; type: functional, cell-based
In your response, the unit should come after the numeric value.

// worked examples, IC50 included
Task item: Report measured IC50; entry is CN(C)CCCn1c(=O)c2sc3ccccc3c2c2ccccc21
Reply: 1.4 µM

Task item: Return the recorded IC50 value; entry: CN(C)CCCN(C(=O)c1ccc2c(c1)sc1c(O)nc3ccccc3c12)c1ccccc1
Reply: 4.79 µM

Task item: Quickly give me recorded IC50 for Cc1ccc2c(c1)sc1c(=O)n(CCCN(C)C)c3ccccc3c12
Reply: 1.1 µM

Task item: Give the reported IC50 for this molecule. CN(C)CCCn1c(=O)c2sc3cc([N+](=O)[O-])ccc3c2c2ccccc21
Reply: 1.25 µM

Task item: Give a short answer stating reported IC50 for CN(C)CCCNC(=O)c1ccc2c(c1)sc1c(O)nc3ccccc3c12 .
Reply: 6.6 µM

Parameters: items (list). Returns: IC50 for each item.
1. CN(C)CCCn1c(=O)c2sc3cc(F)ccc3c2c2ccccc21
2. CN(C)CCCn1c(=O)c2sc3cc(C(=O)Nc4ccccc4)ccc3c2c2ccccc21

Reply:
["2.5 µM", "1 µM"]

Count: 2. Required value per item: IC50.
1. COc1ccc2c(c1)sc1c(=O)n(CCCN(C)C)c3ccccc3c12
2. COC(=O)c1ccc2c(c1)sc1c(=O)n(CCCN(C)C)c3ccccc3c12

Reply:
1. 0.51 µM
2. 1 µM

====

test system: HeLa; test: In vitro inhibitory effect on growth of human HeLa tumor cell line; assay type: functional, cell-based
Assign labels as follows, please: 1 for IC50 below 1 µM; -1 for IC50 equal to or exceeding 1 µM.

Task item: # check: IC50 < 1 µM for COc1ccc2c(c1)sc1c(=O)n(CCCN(C)C)c3ccccc3c12
Reply: 1

Task item: Here's an entry: CN(C)CCCN(C(=O)c1ccc2c(c1)sc1c(O)nc3ccccc3c12)c1ccccc1 . Is its IC50 below 1 µM?
Reply: -1

Task item: Is the reported IC50 for CN(C)CCCNC(=O)c1ccc2c(c1)sc1c(O)nc3ccccc3c12 strictly below 1 µM?
Reply: -1

Task item: State whether 1 µM exceeds IC50 recorded for CN(C)CCCn1c(=O)c2sc3cc(F)ccc3c2c2ccccc21 .
Reply: 1

Task item: Say whether its IC50 is strictly beneath 1 µM. Entry: CN(C)CCCn1c(=O)c2sc3ccccc3c2c2ccccc21
Reply: -1

Task item: Below 1 µM on IC50? Entry CN(C)CCCn1c(=O)c2sc3cc(C(=O)Nc4ccccc4)ccc3c2c2ccccc21
Reply: -1

Others:
Task item: Quick check: does COC(=O)c1ccc2c(c1)sc1c(=O)n(CCCN(C)C)c3ccccc3c12 have IC50 under 1 µM?
Reply: -1

====

Exercise: for every item that follows, state its recorded log10 IC50.
system: HBL; test: In vitro inhibitory effect on growth of human HBL tumor cell line; assay type: functional, cell-based
Note the log scale: values are log10 of IC50 expressed in nM.

Task item: State log10 IC50 on HBL. Entry: CN(C)CCCn1c(=O)c2sc3cc(C(=O)Nc4ccccc4)ccc3c2c2ccccc21
Reply: 1.00

Task item: Identify measured log10 IC50 obtained with HBL for CN(C)CCCn1c(=O)c2sc3ccccc3c2c2ccccc21 .
Reply: 2.76

Task item: Enter recorded log10 IC50 with HBL for COc1ccc2c(c1)sc1c(=O)n(CCCN(C)C)c3ccccc3c12 here.
Reply: 3.20

For every item below, please supply its log10 IC50.
1. Cc1ccc2c(c1)sc1c(=O)n(CCCN(C)C)c3ccccc3c12
2. CN(C)CCCNC(=O)c1ccc2c(c1)sc1c(O)nc3ccccc3c12
3. CN(C)CCCn1c(=O)c2sc3cc(F)ccc3c2c2ccccc21
4. COC(=O)c1ccc2c(c1)sc1c(=O)n(CCCN(C)C)c3ccccc3c12
5. CN(C)CCCn1c(=O)c2sc3cc([N+](=O)[O-])ccc3c2c2ccccc21
6. CN(C)CCCN(C(=O)c1ccc2c(c1)sc1c(O)nc3ccccc3c12)c1ccccc1

Reply:
1. 3.04
2. 3.00
3. 3.60
4. 2.54
5. 3.08
6. 2.83

Data provenance is ChEMBL document CHEMBL1145126.
